# Tested on: jimpy (Plp1 jimpy) mouse iPSC-derived oligodendrocyte progenitor cells;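 note: 10 µM single dose with 3-day oligodendrocyte differentiation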
# ASSAY_NOTES: MBP+ mature oligodendrocyte number relative to DMSO vehicle control (SDs above negative control mean); higher = more surviving jimpy oligodendrocytes (rescue)
# EXPERIMENTAL_PARAMETERS: 10 µM; 3 days
Where a name gives a salt, the structure may show the parent alone. In all, about 2,600 compounds were measured (“MBP+ mature oligodendrocyte number relative to DMSO vehicle control”: median about -0.34, highest 2% from about 13 on). The sample as a whole holds a higher share of the highest values than the screen did.
Respond with Met for MBP+ mature oligodendrocyte number values of 20 and above, Not met for values below.

Exercise: # check: MBP+ mature oligodendrocyte number of CCC(=O)O[C@]1(C(=O)CCl)[C@@H](C)C[C@H]2[C@@H]3C[C@H](F)C4=CC(=O)C=C[C@]4(C)[C@@]3(F)[C@@H](O)C[C@@]21C [Halobetasol Propionate] is greater than or equal to 20
Solution: Met

Exercise: # check: MBP+ mature oligodendrocyte number of CCC(=O)OCC(=O)[C@@]1(OC(=O)CC)[C@@H](C)C[C@H]2[C@@H]3CCC4=CC(=O)C=C[C@]4(C)[C@@]3(Cl)[C@@H](O)C[C@@]21C [Beclomethasone dipropionate] is greater than or equal to 20
Solution: Not met

Exercise: # check: MBP+ mature oligodendrocyte number of OC(CCN1CCCCC1)(c1ccccc1)C1CC2C=CC1C2 (configuration not stated) [Biperiden HCl] is greater than or equal to 20
Solution: Not met

Exercise: # check: MBP+ mature oligodendrocyte number of CCc1nc(N)nc(N)c1-c1ccc(Cl)cc1 is greater than or equal to 20
Solution: Met

Exercise: # check: MBP+ mature oligodendrocyte number of NC(N)=NC(N)=Nc1ccccc1 [1-Phenylbiguanide] is greater than or equal to 20
Solution: Not met

Exercise: # check: MBP+ mature oligodendrocyte number of OC(CCN1CCCCC1)(c1ccccc1)C1CCCCC1 (configuration not stated) [Trihexyphenidyl hydrochloride] is greater than or equal to 20
Solution: Not met

Exercise: # check: MBP+ mature oligodendrocyte number of Cc1c(OCC(F)(F)F)ccnc1C[S@@+]([O-])c1nc2ccccc2[nH]1 is greater than or equal to 20
Solution: Not met

Measured values drawn from the supplement of paper PMC6135742 for this set.
